Parameter: T3 sensor activation Q score. Scope: all listed entries.
Test system: ppGalNAc-T3 sensor
Test: T3 sensor activation Q score (MG/GFP ratio z-score vs DMSO controls) (SD units); higher = more sensor activation (inhibition of ppGalNAc-T3 glycosylation)
Details: HEK293 sensor cells; 10 µM; 6 h
Over roughly 1,700 compounds, “T3 sensor activation Q score (MG/GFP ratio z-score vs DMSO controls)” has its median near 0.25; the highest 2% begin near 1.9. Many of the other results were omitted from the sample, so the highest values are more common in it than they were.
Enter a number only.

The examples below pair each entry with its known result.
# molecule, T3 sensor activation Q score
records = [
    ("C1CC2NCCC3NCCC(N1)N32 (configuration not stated)", -0.95),
    ("CC[C@@]1(O)C(=O)OCc2c1cc1n(c2=O)Cc2cc3ccccc3nc2-1", -1.75),
    ("CC12CCC3C(CCC4Cc5[nH]c6ccccc6c5CC43C)C1CCC2O (configuration not stated)", 0.6),
    ("CCC1CCC(C)N(N=O)C1 (configuration not stated)", 1.05),
    ("c1ccc2c(c1)Sc1ccccc1N2CC1CN2CCC1CC2 (configuration not stated)", -0.15),
    ("O=C1N(c2nncs2)CCN1[N+](=O)[O-]", 2.65),
    ("Nc1nc(N)c2cnnn2n1", 0.5),
    ("COc1ccc2c(c1)NP(=S)(Oc1ccccc1)N2 (configuration not stated)", -0.15),
    ("CCOC(=O)c1ccc2[nH]c(-c3ccc(S(=O)(=O)F)cc3)cc(=O)c2c1", 0.95),
    ("NC(=S)c1cn([C@@H]2O[C@H](CO)[C@@H](O)[C@H]2O)c2ncnc(N)c12", 4.95),
]

Dear colleague, I am looking for the recorded T3 sensor activation Q score of the following molecule: `O=C(NC(=O)c1c(F)cccc1F)Nc1cc(Cl)c(F)c(Cl)c1F`
-0.65

Dear colleague, I am looking for the recorded T3 sensor activation Q score of the following molecule: `c1ccc2nc(OCCN3CC3)ccc2c1`
1

Dear colleague, I am looking for the recorded T3 sensor activation Q score of the following molecule: `Oc1cccc2nc3ccccc3nc12`
-0.35

Dear colleague, I am looking for the recorded T3 sensor activation Q score of the following molecule: `Cn1cc(C=O)c2nccnc21`
-1.5

Dear colleague, I am looking for the recorded T3 sensor activation Q score of the following molecule: CC12CCC3C(CC=C4CC(O)CCC43C)C1C/C(=C\N1CCCC1)C2=O (configuration not stated)
1.9

Dear colleague, I am looking for the recorded T3 sensor activation Q score of the following molecule: `C=CCNC(=S)Nc1ccc(OC(=O)Nc2ccc(Cl)c(Cl)c2)cc1`
0.4

Dear colleague, I am looking for the recorded T3 sensor activation Q score of the following molecule: CN1C2c3ccccc3C3C4c5ccccc5C(C31)C(C2[N+](=O)[O-])N4C (configuration not stated)
1.1
